# System: S. epidermidis strain ATCC 35984
# Assay: Improved biofilm dispersion screen (already-formed biofilms, crystal violet)
# Format: cell-based
# Condition label: Staphylococcus epidermidis, ATCC35984, no NaOH, positive = dispersion, negative = enhancement of pre-existing biofilm, quadruplicate, read-out: average percentage reduction of biofilm relative to the two control values (dispersion)
Quick reference: inhibition at 390 µM of the listed items.

| Compound | Units of measure | inhibition at 390 µM |
| --- | --- | --- |
| CCCCCCNC(=O)[C@@H]1CCN1 [Compound 287] | % | 71 |
| CCCCCCCCNC(=O)[C@H]1CCCCN1C(C)=O [Compound 24] | % | -8 |
| CCCCCCCCNC(=O)[C@@H]1CCCCN1C(=O)OC(C)(C)C [Compound 19] | % | -3 |
| CCCCNC(=O)[C@H]1CCCN1 [Compound 162] | % | 0 |
| CCCCCCNC(=O)[C@H]1CCCN1 [Compound 163] | % | -5 |
| CC(C)(C)OC(=O)N1CCC[C@@H]1C(=O)NCCCCCCCCCCCCNC(=O)[C@H]1CCCN1C(=O)OC(C)(C)C [Compound 225] | % | 0 |
| CCCCCCCCCCCCNC(=O)[C@@H]1CCN1 [Compound 290] | % | 82 |
| CCCCCCNC(=O)C1CCCN1C(C)=O (racemic) [Compound 7] | % | 0 |
| CCCCCCCCNC(=O)[C@H]1CCCCN1C(=O)CCCCCCC [Compound 28] | % | -8 |
| CCCCCCCCCCNC(=O)[C@@H]1CCCN1 [Compound 32, L-proline n-decyl amide] | % | 72 |
| CCCCCCCCNC(=O)[C@@H]1CCN1C(=O)OC(C)(C)C [Compound 284] | % | 0 |
| CCCCCCNC(=O)[C@H]1CCCN1C(=O)OC(C)(C)C [Compound 153] | % | -10 |
| CCCCNC(=O)[C@@H]1CCCN1C(=O)OC(C)(C)C [Compound 155] | % | -4 |
| CCCCCCCCCCCCNC(=O)[C@H]1CCCN1 [Compound 167] | % | 78 |
| CCCCCCNC(=O)[C@@H]1CCCN1C(=O)OC(C)(C)C [Compound 10] | % | -6 |
| CCCCCCCCCCNC(=O)[C@@H]1CCCN1C(=O)OC(C)(C)C [Compound 12] | % | 0 |
| CCCCCCCCCCCCNC(=O)[C@@H]1CCCN1C(=O)OC(C)(C)C [Compound 160] | % | 0 |
| CCCCCCCCNC(=O)[C@H]1CCCCN1 [Compound 23] | % | 0 |
| CCCCNC(=O)[C@@H]1CCCN1 [Compound 165] | % | -3 |
| CCCCCCCCCCNC(=O)[C@@H]1CCN1 [Compound 289] | % | 84 |
| CCCCCCCCCCCCNC(=O)[C@@H]1CCN1C(=O)OC(C)(C)C [Compound 286] | % | 0 |
| CCCCCCCCCCCCNC(=O)[C@@H]1CCCN1 [Compound 168] | % | 78 |
| CCCCCCCCNC(=O)[C@@H]1CCCCN1 [Compound 20] | % | 0 |
| CCCCCCNC(=O)[C@@H]1CCN1C(=O)OC(C)(C)C [Compound 283] | % | -11 |
| CCCCNC(=O)[C@H]1CCCN1C(=O)OC(C)(C)C [Compound 152] | % | -4 |
| CCCCCCCCNC(=O)[C@@H]1CCN1 [Compound 288] | % | 72 |
| CCCCCCCCNC(=O)[C@H]1CCCCN1C(=O)OC(C)(C)C [Compound 22] | % | 0 |
| CCCCCCCCCCNC(=O)[C@H]1CCCN1 [Compound 166] | % | 70 |
| CCCCCCCCNC(=O)[C@@H]1CCCN1 [Compound 31] | % | -11 |
| CCCCCCCCNC(=O)[C@H]1CCCN1 [Compound 164] | % | -3 |
| CCCCCCCCCCNC(=O)[C@H]1CCCN1C(=O)OC(C)(C)C [Compound 158] | % | 0 |
| CCCCCCCCCCNC(=O)[C@@H]1CCN1C(=O)OC(C)(C)C [Compound 285] | % | 0 |
| CCCCCCNC(=O)[C@@H]1CCCN1 [Compound 30] | % | -11 |
| CCCCCCCCNC(=O)[C@@H]1CCCN1C(=O)OC(C)(C)C [Compound 11] | % | 0 |
| CCCCCCCCNC(=O)[C@@H]1CCCCN1C(C)=O [Compound 21] | % | -8 |

Where do these numbers come from? They come from patent US7018642B2.
